The reported measurements were obtained from ChEMBL document CHEMBL3867464.

experiment notes: Cytotoxicity against human THLE2 cells assessed as decrease in cell viability after 72 hrs by MTT assay
Assay type: toxicity, cell-based
measurement parameters: thle-2, 72 h
metric name: CC50 (µM)

substance smiles | unit | value
CCOC(=O)c1sc(Nc2ncccn2)nc1-c1cnccn1 | µM | 47.1
CC(C)OC(=O)c1sc(Nc2ncccn2)nc1-c1ncccn1 | µM | 50
O=C(O)CCc1sc(Nc2ncccn2)nc1-c1ccccn1 | µM | 26.4
CC(C)OC(=O)c1sc(Nc2ncccn2)nc1-c1ccncn1 | µM | 46.2
CCOC(=O)Cc1sc(Nc2ncccn2)nc1-c1ccccn1 | µM | 50
CC(C)OC(=O)c1sc(Nc2ncccn2)nc1-c1ccccn1 | µM | 50
CC(C)OC(=O)OCN(c1ncccn1)c1nc(-c2cnccn2)c(C(=O)OC(C)C)s1 | µM | 50
c1ccc(-c2csc(NCc3ncccn3)n2)nc1 | µM | 49.6

* * *

experiment notes: Cmax in CD-1 mouse at 2.5 mg/kg, po
Type: ADME, organism-based
Design: dose 2.5 mg/kg, route oral
measurement parameters: in vivo

substance smiles | Cmax
CC(C)OC(=O)c1sc(Nc2ncccn2)nc1-c1cnccn1 | 0.0487 µg/mL

* * *

experiment notes: Cytotoxicity against human HuH7 cells assessed as decrease in cell viability after 72 hrs by MTT assay
Assay type: functional
measurement parameters: Huh-7, 72 h
Each record here notes measured CC50.
metric name: CC50 (µM)

substance smiles | value
CCOC(=O)Cc1sc(Nc2ncccn2)nc1-c1ccccn1 | 1.39
c1ccc(-c2csc(Nc3ncccn3)n2)nc1 | 1.1
CCOC(=O)Cc1sc(NCc2ncccn2)nc1-c1ccccn1 | 49.4
CC(C)OC(=O)c1sc(Nc2ncccn2)nc1-c1ncccn1 | 1.62
CC(C)OC(=O)c1sc(Nc2ncccn2)nc1-c1ccncn1 | 1.21
O=C(O)CCc1sc(Nc2ncccn2)nc1-c1ccccn1 | 14.1
CC(C)OC(=O)c1sc(N(COP(=O)(OC(C)(C)C)OC(C)(C)C)c2ncccn2)nc1-c1cnccn1 | 0.98
CCOCc1sc(NCc2ncccn2)nc1-c1ccccn1 | 44.8
CCOC(=O)c1sc(Nc2ncccn2)nc1-c1ccccn1 | 0.18
CCOC(=O)c1sc(Nc2ncccn2)nc1-c1cc(C(F)(F)F)ccn1 | 0.17
CCOC(=O)c1sc(Nc2ncccn2)nc1-c1cnccn1 | 0.59

* * *

Form field: remaining at 1 h (one value per entry).
experiment notes: Stability in mouse liver microsomes assessed as parent compound remaining measured at 60 mins
Assay type: ADME
measurement parameters: read-out: Stability

substance smiles | remaining at 1 h / %
CC(C)OC(=O)c1sc(Nc2ncccn2)nc1-c1cnccn1 | 36.2
CCOC(=O)c1sc(Nc2ncccn2)nc1-c1ccccn1 | 43.3

* * *

System: Huh-7
experiment notes: Selectivity index, ratio of CC50 for human PH5CH cells to CC50 for human HuH7 cells
Format: functional
The class of a record is decided solely by its measured Selectivity Index; consult lower segment: < 20; middle segment: ≥ 20 and < 90; upper segment: ≥ 90

substance smiles | assigned label
CC(C)OC(=O)c1sc(N(COP(=O)(OC(C)(C)C)OC(C)(C)C)c2ncccn2)nc1-c1cnccn1 | middle segment
CC(C)OC(=O)OCN(c1ncccn1)c1nc(-c2cnccn2)c(C(=O)OC(C)C)s1 | upper segment
CCOC(=O)c1sc(Nc2ncccn2)nc1-c1ccncn1 | middle segment
CCOC(=O)Cc1sc(NCc2ncccn2)nc1-c1ccccn1 | lower segment
CC(C)OC(=O)c1sc(Nc2ncccn2)nc1-c1ncccn1 | middle segment
CCOC(=O)c1sc(Nc2ncccn2)nc1-c1cnccn1 | middle segment
CC(C)OC(=O)c1sc(Nc2ncccn2)nc1-c1ccncn1 | middle segment
CCOC(=O)CCc1sc(Nc2ncccn2)nc1-c1ccccn1 | lower segment
CCOC(=O)Cc1sc(Nc2ncccn2)nc1-c1ccccn1 | middle segment
COCCOCN(c1ncccn1)c1nc(-c2cnccn2)c(C(=O)OC(C)C)s1 | lower segment
CCOC(=O)c1sc(Nc2ncccn2)nc1-c1ccccn1 | upper segment
CC(C)OC(=O)c1sc(Nc2ncccn2)nc1-c1cnccn1 | upper segment
